Molecular target: C-Raf (Y340D/Y341D) (Homo sapiens (Human), UniProt P04049, Y340D/Y341D)
Sequence (P04049 whole entry Y340D/Y341D): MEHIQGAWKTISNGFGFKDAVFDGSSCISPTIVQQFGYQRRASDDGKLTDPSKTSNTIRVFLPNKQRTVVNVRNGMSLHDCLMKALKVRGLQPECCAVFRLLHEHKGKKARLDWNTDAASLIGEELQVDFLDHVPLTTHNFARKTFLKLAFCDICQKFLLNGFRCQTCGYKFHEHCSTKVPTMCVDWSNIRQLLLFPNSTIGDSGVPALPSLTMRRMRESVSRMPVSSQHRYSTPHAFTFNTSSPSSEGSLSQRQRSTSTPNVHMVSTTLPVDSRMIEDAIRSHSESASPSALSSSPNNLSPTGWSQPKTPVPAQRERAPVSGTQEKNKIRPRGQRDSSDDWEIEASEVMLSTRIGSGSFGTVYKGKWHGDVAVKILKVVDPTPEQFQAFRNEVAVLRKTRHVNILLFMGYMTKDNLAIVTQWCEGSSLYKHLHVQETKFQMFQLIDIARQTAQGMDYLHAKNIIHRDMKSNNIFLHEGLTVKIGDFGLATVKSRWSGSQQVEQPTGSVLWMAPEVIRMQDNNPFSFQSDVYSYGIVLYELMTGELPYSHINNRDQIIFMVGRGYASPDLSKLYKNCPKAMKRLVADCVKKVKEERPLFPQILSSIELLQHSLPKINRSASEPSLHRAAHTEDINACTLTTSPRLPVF
Experiment: Raf IC50 assay, TR-FRET, C-Raf (Y340D/Y341D)
Settings: 0.1 mM ATP
Experimental: Compounds disclosed herein were tested against B-Raf (V600E) (PV3849, from Invitrogen) or C-Raf (Y340D/Y341D) (PV3805, from Invitrogen) in a time-resolved fluorescence energy transfer assay. […] Plates were sealed and incubated at room temperature for 2 hours, and the TR-FRET signals (ratio of fluorescence emission at 665 nm over emission at 620 nm with excitation at 337 nm wavelength) were recorded on a PHERAstar FS plate reader (BMG Labtech). […]
assayEndpoint: IC50 (nM)
Give just the number in nM; leave the unit off.

lineNotation	assayEndpoint	recordedResult
CCN1CCN(Cc2ccc(C(=O)N[C@@H]3[C@H]4Oc5ccc(Oc6ccnc(C(=O)NC)c6)cc5[C@@H]34)cc2C(F)(F)F)CC1	IC50	12

Note to self: IC50 recorded for CN(C)[C@H]1CCCN(Cc2ccc(C(=O)N[C@@H]3[C@H]4Oc5ccc(Oc6ccnc7c6CCC(=O)N7)cc5[C@@H]34)cc2C(F)(F)F)C1 was 2.5

Note to self: IC50 recorded for O=C1CCc2c(Oc3ccc4c(c3)[C@H]3[C@H](NC(=O)c5cccc(F)c5)[C@H]3O4)ccnc2N1 was 0.15

====

target: EGFR T790M/L858R kinase domain (Homo sapiens (Human), UniProt P00533, L858R/T790M); test: EGFR enzymatic assay, TR-FRET, EGFR T790M/L858R
Sequence (P00533 669-1210 T790M/L858R): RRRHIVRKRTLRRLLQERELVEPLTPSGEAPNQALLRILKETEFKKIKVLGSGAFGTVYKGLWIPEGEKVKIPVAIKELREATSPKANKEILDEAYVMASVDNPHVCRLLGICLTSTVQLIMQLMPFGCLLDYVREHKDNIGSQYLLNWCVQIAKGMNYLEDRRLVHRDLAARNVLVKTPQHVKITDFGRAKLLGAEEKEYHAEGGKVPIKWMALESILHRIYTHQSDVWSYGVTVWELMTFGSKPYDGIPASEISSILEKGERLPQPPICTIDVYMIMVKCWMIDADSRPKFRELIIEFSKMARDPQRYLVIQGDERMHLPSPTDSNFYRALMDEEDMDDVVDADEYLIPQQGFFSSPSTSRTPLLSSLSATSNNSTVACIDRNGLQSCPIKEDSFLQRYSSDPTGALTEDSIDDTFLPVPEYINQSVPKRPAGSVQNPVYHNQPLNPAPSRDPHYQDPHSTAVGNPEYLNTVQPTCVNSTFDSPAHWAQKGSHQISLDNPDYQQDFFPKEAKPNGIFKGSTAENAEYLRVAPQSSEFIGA
assayEndpoint: log10 IC50 (log10 of the value in nM)
Scale type: logarithmic (base 10). Underlying IC50 unit: nM.

Previously resolved entries follow.
molecule	recordedResult
CCN1CCN(Cc2ccc(C(=O)N[C@@H]3[C@H]4Oc5ccc(Oc6ccnc7c6CCC(=O)N7)cc5[C@@H]34)cc2F)CC1 [Compound 1.4]	0.36
CN(C)[C@@H]1CCCN(c2ccc(C(=O)N[C@@H]3[C@H]4Oc5ccc(Oc6ccnc7c6CCC(=O)N7)cc5[C@@H]34)cc2C(F)(F)F)C1 [Compound 1.48]	0.72
O=C1CCc2c(Oc3ccc4c(c3)[C@H]3[C@H](NC(=O)c5cccc(C(F)(F)F)n5)[C@H]3O4)ccnc2N1 [Compound 1.63]	2.37
CCN1CCN(Cc2ccc(C(=O)N[C@@H]3[C@H]4Oc5ccc(Oc6ccnc7c6CCC(=O)N7)cc5[C@@H]34)cc2Br)CC1 [Compound 1.19]	0.04

Note to self: log10 IC50 recorded for O=C1CCc2c(Oc3ccc4c(c3)[C@H]3[C@H](NC(=O)c5ccc(-c6ccccc6)o5)[C@H]3O4)ccnc2N1 [Compound 1.54] was 2.88

====

molecular target: EGFR L858R kinase domain (Homo sapiens (Human), UniProt P00533, L858R); test: EGFR enzymatic assay, TR-FRET, EGFR L858R
Sequence (P00533 669-1210 L858R): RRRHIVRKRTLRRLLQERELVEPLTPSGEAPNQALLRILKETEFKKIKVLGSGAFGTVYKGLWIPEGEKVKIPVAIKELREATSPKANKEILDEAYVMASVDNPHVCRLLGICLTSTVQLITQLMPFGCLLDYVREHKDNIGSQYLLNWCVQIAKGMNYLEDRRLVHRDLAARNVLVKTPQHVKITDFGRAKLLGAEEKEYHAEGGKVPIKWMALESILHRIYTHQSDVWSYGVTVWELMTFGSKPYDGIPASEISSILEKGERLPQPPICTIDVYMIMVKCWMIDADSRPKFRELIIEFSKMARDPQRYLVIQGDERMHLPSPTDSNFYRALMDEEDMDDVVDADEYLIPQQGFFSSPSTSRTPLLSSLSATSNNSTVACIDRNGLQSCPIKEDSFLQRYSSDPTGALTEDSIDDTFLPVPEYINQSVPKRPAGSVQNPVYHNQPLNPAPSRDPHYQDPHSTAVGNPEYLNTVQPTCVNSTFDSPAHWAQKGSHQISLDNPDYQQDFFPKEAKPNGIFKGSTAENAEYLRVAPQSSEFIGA
pIC50: −log10 of the molar value.
pIC50 of 9 or higher: rule met. Under 9: rule not met.

Solved entries:
compound	assignedLabel
CN1CCN(Cc2ccc(C(=O)N[C@@H]3[C@H]4Oc5ccc(Oc6ccnc7c6CCC(=O)N7)cc5[C@@H]34)cc2F)CC1 [Compound 1.21]	rule met
C[C@@H]1CN(Cc2ccc(C(=O)N[C@@H]3[C@H]4Oc5ccc(Oc6ccnc7c6CCC(=O)N7)cc5[C@@H]34)cc2C(F)(F)F)CCN1 [Compound 1.30]	rule met
O=C1CCc2c(Oc3ccc4c(c3)[C@H]3[C@H](NC(=O)c5ccc(-c6ccccc6)o5)[C@H]3O4)ccnc2N1 [Compound 1.54]	rule not met

Moving on to another compound below.
Req: Is it the case that CCN1CCN(Cc2ccc(C(=O)N[C@@H]3[C@H]4Oc5ccc(Oc6ccnc7c6CCC(=O)N7)cc5[C@@H]34)cc2C(F)(F)F)CC1 [Compound 1.1] has pIC50 reaching or exceeding 9?
Resp: rule met

====

Molecular target: C-Raf (Y340D/Y341D) (Homo sapiens (Human), UniProt P04049, Y340D/Y341D)
Test: Raf IC50 assay, TR-FRET, C-Raf (Y340D/Y341D)
Details: 0.1 mM ATP
Method: Compounds disclosed herein were tested against B-Raf (V600E) (PV3849, from Invitrogen) or C-Raf (Y340D/Y341D) (PV3805, from Invitrogen) in a time-resolved fluorescence energy transfer assay. […] Plates were sealed and incubated at room temperature for 2 hours, and the TR-FRET signals (ratio of fluorescence emission at 665 nm over emission at 620 nm with excitation at 337 nm wavelength) were recorded on a PHERAstar FS plate reader (BMG Labtech). […]
assayEndpoint: pIC50
Reminder that pIC50 means the negative base-10 logarithm of the concentration expressed in mol/L.

Previously resolved entries follow.
lineNotation	pIC50
O=C1CCc2c(Oc3ccc4c(c3)[C@H]3[C@H](NC(=O)c5ccc(CN6CCn7c(nnc7C(F)(F)F)C6)c(C(F)(F)F)c5)[C@H]3O4)ccnc2N1	8.77
NC1(c2cc(C(=O)N[C@@H]3[C@H]4Oc5ccc(Oc6ccnc7c6CCC(=O)N7)cc5[C@@H]34)cc(C(F)(F)F)c2)CC1	9.28
CCN1CCN(Cc2ccc(C(=O)N[C@@H]3[C@H]4Oc5ccc(Oc6ccnc7c6CCC(=O)N7)cc5[C@@H]34)cc2C(F)(F)F)CC1	9.03
CN(C)[C@H]1CCCN(c2ccc(C(=O)N[C@@H]3[C@H]4Oc5ccc(Oc6ccnc7c6CCC(=O)N7)cc5[C@@H]34)cc2C(F)(F)F)C1	8.92
CC(C)(N)c1cc(C(=O)N[C@@H]2[C@H]3Oc4ccc(Oc5ccnc6c5CCC(=O)N6)cc4[C@@H]23)cc(C(F)(F)F)c1	9.60
O=C1CCc2c(Oc3ccc4c(c3)[C@H]3[C@H](NC(=O)c5ccc(CN6CCOCC6)c(C(F)(F)F)c5)[C@H]3O4)ccnc2N1	8.46

Note to self: pIC50 recorded for CC(C)(C#N)c1cccc(C(=O)N[C@@H]2[C@H]3Oc4ccc(Oc5ccnc6c5CCC(=O)N6)cc4[C@@H]23)c1 was 9.47

Note to self: pIC50 recorded for O=C1CCc2c(Oc3ccc4c(c3)[C@H]3[C@H](NC(=O)c5ccc(C(F)(F)F)cc5)[C@H]3O4)ccnc2N1 was 9.19

====

biological target: EGFR L858R kinase domain (Homo sapiens (Human), UniProt P00533, L858R); test: EGFR enzymatic assay, TR-FRET, EGFR L858R
assayEndpoint: log10 of IC50 (log10 of the value in nM)
Scale type: logarithmic (base 10). Underlying IC50 unit: nM.

Previously resolved entries follow.
compound	testedOn	log10 of IC50
CCN1CCN(Cc2ccc(C(=O)N[C@@H]3[C@H]4Oc5ccc(Oc6ccnc7c6CCC(=O)N7)cc5[C@@H]34)cc2C)CC1	EGFR L858R kinase domain (Homo sapiens (Human), UniProt P00533, L858R)	-0.30
CN1CCN(Cc2ccc(C(=O)N[C@@H]3[C@H]4Oc5ccc(Oc6ccnc7c6CCC(=O)N7)cc5[C@@H]34)cc2Cl)CC1	EGFR L858R kinase domain (Homo sapiens (Human), UniProt P00533, L858R)	-0.64
O=C1CCc2c(Oc3ccc4c(c3)[C@H]3[C@H](NC(=O)c5cncc(C(F)(F)F)c5)[C@H]3O4)ccnc2N1	EGFR L858R kinase domain (Homo sapiens (Human), UniProt P00533, L858R)	1.45
O=C1CCc2c(Oc3ccc4c(c3)[C@H]3[C@H](NC(=O)c5cccc(F)c5)[C@H]3O4)ccnc2N1	EGFR L858R kinase domain (Homo sapiens (Human), UniProt P00533, L858R)	1.48
COc1cc(C(=O)N[C@@H]2[C@H]3Oc4ccc(Oc5ccnc6c5CCC(=O)N6)cc4[C@@H]23)ccc1CN1CCN(C)CC1	EGFR L858R kinase domain (Homo sapiens (Human), UniProt P00533, L858R)	0.00
NC1(c2cc(C(=O)N[C@@H]3[C@H]4Oc5ccc(Oc6ccnc7c6CCC(=O)N7)cc5[C@@H]34)cc(C(F)(F)F)c2)CC1	EGFR L858R kinase domain (Homo sapiens (Human), UniProt P00533, L858R)	0.11

Note to self: log10 of IC50 recorded for CCN1CCN(Cc2ccc(C(=O)N[C@@H]3[C@H]4Oc5ccc(Oc6ccnc(C(=O)NC)c6)cc5[C@@H]34)cc2C(F)(F)F)CC1 was 0.67

Note to self: log10 of IC50 recorded for CN(C)[C@@H]1CCCN(Cc2ccc(C(=O)N[C@@H]3[C@H]4Oc5ccc(Oc6ccnc7c6CCC(=O)N7)cc5[C@@H]34)cc2C(F)(F)F)C1 was -0.36

====

target: EGFR L858R kinase domain (Homo sapiens (Human), UniProt P00533, L858R); assay: EGFR enzymatic assay, TR-FRET, EGFR L858R
pIC50: −log10 of the molar value.
pIC50 of 8 or higher: Y. Under 8: N.

Solved entries:
molecule	assignedLabel
CCCCCCCCCC(=O)N[C@@H]1[C@H]2Oc3ccc(Oc4ccnc5c4CCC(=O)N5)cc3[C@@H]12	N
CCCCCCCC(=O)N[C@@H]1[C@H]2Oc3ccc(Oc4ccnc5c4CCC(=O)N5)cc3[C@@H]12	N
O=C1CCc2c(Oc3ccc4c(c3)[C@H]3[C@H](NC(=O)c5ccc(F)cc5)[C@H]3O4)ccnc2N1	N

Req: Is it the case that CC1CN(Cc2ccc(C(=O)N[C@@H]3[C@H]4Oc5ccc(Oc6ccnc7c6CCC(=O)N7)cc5[C@@H]34)cc2C(F)(F)F)CC(C)N1 (some centres unmarked) has pIC50 reaching or exceeding 8?
Resp: Y

Req: Is it the case that CCN1CCN(Cc2ccc(C(=O)N[C@@H]3[C@H]4Oc5ccc(Oc6ccnc7c6CCC(=O)N7)cc5[C@@H]34)cc2F)CC1 has pIC50 reaching or exceeding 8?
Resp: Y

Req: Is it the case that CCN1CCC(=Cc2ccc(C(=O)N[C@@H]3[C@H]4Oc5ccc(Oc6ccnc7c6CCC(=O)N7)cc5[C@@H]34)cc2C(F)(F)F)CC1 has pIC50 reaching or exceeding 8?
Resp: Y

Req: Is it the case that CCCCCCC(=O)N[C@@H]1[C@H]2Oc3ccc(Oc4ccnc5c4CCC(=O)N5)cc3[C@@H]12 has pIC50 reaching or exceeding 8?
Resp: N

Req: Is it the case that CCN1CCN(Cc2ccc(C(=O)N[C@@H]3[C@H]4Oc5ccc(Oc6ccnc7c6CCC(=O)N7)cc5[C@@H]34)cc2Br)CC1 has pIC50 reaching or exceeding 8?
Resp: Y

Req: Is it the case that O=C(/C=C/c1cccc(C(F)(F)F)c1)N[C@@H]1[C@H]2Oc3ccc(Oc4ccnc5c4CCC(=O)N5)cc3[C@@H]12 has pIC50 reaching or exceeding 8?
Resp: N
